# credit: ChEMBL document CHEMBL4689842

Test system: Fibroblast
Assay: Multiplex assay against human fibroblast
Format: toxicity, cell-based
Assay Context: 12 h, 1 µM, compound concentration 1 uM, replicate 1
Consider the following compounds; for each one, report its Population Normal (%).
One number for each entry, in %.

Compound	Experimental Result
Nc1ccc(C(=O)Nc2cccc(-c3nc(N4CCOCC4)c4oc5ncccc5c4n3)c2)cn1	85
CCC(=O)O[C@]1(C(=O)SCF)[C@H](C)C[C@H]2[C@@H]3C[C@H](F)C4=CC(=O)C=C[C@]4(C)[C@@]3(F)[C@@H](O)C[C@@]21C [FLUTICASONE PROPIONATE]	86
COc1cc(N2CCC(N(C)C)CC2)ccc1Nc1ncc(Cl)c(Nc2ccccc2P(C)(C)=O)n1	85
CCCn1c(=O)c2[nH]c(C34CC5CC(CC3C5)C4)nc2n(CCC)c1=O [ROLOFYLLINE]	90

Note: attention shifts to another entry.
Consider the compound Nc1nc2c(c(N3CCNCC3)n1)CCC1=C2[C@@H]2CCCC[C@@H]2O1 and give its measured Population Normal (%).
84
